System: Plasmodium berghei
TEST_DESCRIPTION: Luciferase/luciferin-expressing antifolate-resistant parasites were used to infect a culture of HepG2 cells that were pre-incubated with compounds. Infected hepatocytes emit light due to the luciferase reaction. Assay results are presented as the percent inhibition of light emission compared to control. […]
Format: functional
CONDITION_INFO: sporozoite, HEPG2TOX_HILL_SLOPE 0.999, HEPG2TOX_R_SQUARED 0.943, PBLUC_HILL_SLOPE 3.71, PBLUC_R_SQUARED 0.586, read-out: LUCIFERASE INFECTION ASSAY - IC50
METRIC_NAME: IC50 (nM)
Express your answer in nM, writing the number without its unit.

The reported value for `CN(C)CCNC(=O)c1cccc(-c2cnc3ccc(-c4cccc(CO)c4)nn23)c1` in terms of IC50 is 873

Provenance of the data: ChEMBL document CHEMBL4483862
